The reported numbers originate from the supplement of paper PMC10567573.

B1: RIPK4 (parent)
chain: AAWQGHLPIVKLLAKQPGVSVNAQ

Variants of: B1
Procedure Text: protein stability index of a GFP-peptide fusion (GPS, HEK-293T) (PSI 1-6); higher = more stable;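 note: lentivirally expressed fusions sorted by FACS into six bins by GFP to DsRed ratio, PSI derived from sequencing read proportions per bin multiplied by bin number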
Condition Info: c terminus: a fixed tail appended
Cut-off 2 on protein stability index, inclusive. At or above means 1 (yes); below means 0 (no).

   sequence_change  group_label
0             L13A      1 (yes)
1             G18S      1 (yes)
2             L13C      1 (yes)
3             Q24L      1 (yes)

Consider the record given below.
-- ask Please tell me: is the variant H6T at or over 2 in terms of protein stability index?
-- reply 1 (yes)
